- experimental_system: Retinaldehyde dehydrogenase 3 (Homo sapiens)
- assay_notes: qHTS for Inhibitors of the Aldehyde Dehydrogenase Family (ALDH1A3) Primary screen (AID 2061315);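 also: plate controls were DMSO vehicle for no effect and reference inhibitor for full effect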
- measurement_conditions: ALDH inhibition qHTS; series mostly up to 56 µM
Records with an inconclusive call do not appear. Calls of active or inactive are those of the source. Calls follow the shape of the dose curve; as a rule, active = well fitted inhibition curve with a large enough effect; inconclusive = small, poorly fitted or top-dose-only effect; inactive = no such curve, though single readings can be large or run the other way. Square brackets hold non-standard residues; d marks the D form. Peptide text beside a SMILES is read from it.
metric_name: activity change, negative = inhibition

INSERT INTO measurements (compound, metric_name, result) VALUES
  ('CCNC(=O)[C@H]1O[C@@H](n2cnc3c(N)nc(NCCc4ccc(CCC(=O)O)cc4)nc32)[C@H](O)[C@@H]1O', 'activity change, negative = inhibition', 'inactive'),
  ('CC(=O)N[C@H](Cc1ccc(O)cc1)C(=O)N[C@H](CCCN=C(N)N)C(=O)N[C@H](Cc1ccccc1)C(N)=O (Ac-[dY]-[dR]-[dF]-NH2)', 'activity change, negative = inhibition', 'inactive'),
  ('O=C(O)Cc1cccc(-c2cc(CCCCCCc3ccc(O[C@H]4O[C@H](CO)[C@@H](O)[C@H](O)[C@@H]4O)c(-c4cccc(CC(=O)O)c4)c3)ccc2O[C@H]2O[C@H](CO)[C@@H](O)[C@H](O)[C@@H]2O)c1', 'activity change, negative = inhibition', '-13.7% [at 0.464 µM] (inactive)'),
  ('COC(=O)c1ccc2c(c1)S(=O)(=O)N=C2Sc1cc(C)ccc1C', 'activity change, negative = inhibition', 'inactive'),
  ('COc1ccc2c(Oc3ccc(NC(=O)c4c(C)n(CC(C)(C)O)n(-c5ccccc5)c4=O)cc3F)ccnc2c1', 'activity change, negative = inhibition', 'inactive'),
  ('CC1OC(O[C@H]2[C@@H](O)C[C@@]3(C)C([C@H](O)C[C@]4(C)C3CC=C3C5CC(C)(C)CC[C@]5(C(=O)OC5OC(CO)C(O)C(O)C5OC5OCC(OC6OCC(OC7OCC(O)C(O)C7O)C(O)C6O)C(OC6OCC(O)(CO)C6O)C5O)CC[C@]34C)[C@]2(C)CO)C(O)C(O)C1O (some centres not stated)', 'activity change, negative = inhibition', '-4.53% [at 11.2 µM] (inactive)'),
  ('CCNC(=O)c1noc(-c2cc(C(C)C)c(O)cc2O)c1-c1ccc(CN2CCOCC2)cc1', 'activity change, negative = inhibition', 'inactive');

* * *

- experimental_system: Cellular tumor antigen p53 (Homo sapiens)
- assay_notes: Primary qHTS for small molecule compounds that upregulate eGFP-tagged delta133p53alpha (in N-terminal) cells. (AID 2060322);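 also: cells pre-induced with doxycycline then dosed without doxycycline; 0% = DMSO vehicle and 100% = reference activator; nearly all actives have a fitted effect of over 75% in size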
- measurement_conditions: NCI-H358 eGFP-delta133p53alpha fluorescence, 24 h; hits give high values
Results filed as inconclusive are left out.
metric_name: activation (%)

INSERT INTO assay_data (compound, numeric_readout) VALUES
  ('CC(=O)OC1CC(O)(C(C)C)C2C(OC(=O)c3ccc(O)cc3)C=C(C)C(=O)CC12C (configuration not stated)', 29.8),
  ('CC1CCC2C(C)(C)[C@H](O)CC[C@]2(C)C12Cc1c(O)cc3c(c1O2)CN(C(CCC(=O)O)C(=O)O)C3=O (some centres not stated)', -2.29),
  ('CC1(C)CCCC2(C)C3=C(C(=O)OC3O)C(O)CC12 (configuration not stated)', 9.92),
  ('Cn1cnc([N+](=O)[O-])c1Sc1ncnc2nc[nH]c12', -10),
  ('c1ccc2c(c1)CCC[C@H]2Nc1nc2ccccc2[nH]1', 27.9),
  ('CC1CCCC(O)CCC/C=C/c2cc(OS(=O)(=O)O)cc(O)c2C(=O)O1 (configuration not stated)', -19.8),
  ('CCc1nc(-c2cccc(C)c2)c(-c2ccnc(NC(=O)c3ccccc3)c2)s1', 17.2),
  ('CCCCOCCOc1nc(-c2ccc(C(=O)O)c(F)c2)sc1C', 13.4),
  ('CNCCN1CCC(OCc2ccccc2)CC1', -13.4),
  ('CC(=O)O[C@H]1C[C@@H]2[C@]3(CC[C@]4(C)[C@@H](C5(C)CCC(C(C)(C)O)O5)[C@@H](O)C[C@@]24C)C[C@@]32CC[C@H](O[C@@H]3OC[C@@H](O)[C@H](O)[C@H]3O)C(C)(C)[C@H]12 (some centres not stated)', -4.46),
  ('C/C=C/C=C/[C@@H]1O[C@](O)([C@H](CC)C(=O)NC/C=C/C=C(\C)[C@@H](OC)[C@@H](C)[C@@H]2O[C@H](/C=C/C=C/C=C(\C)C(=O)c3c(O)ccn(C)c3=O)[C@H](O)[C@@H]2O)[C@H](O)[C@H](O)C1(C)C', 4.58),
  ('O=C(NCC(=O)N1CC[C@H](NC2CCC(O)(c3ccc(-c4ncccn4)cn3)CC2)C1)c1cccc(C(F)(F)F)c1 (some centres not stated)', 5.25),
  ('C[C@@]1(C2CCCC2)Cc2cc(OCC(=O)O)c(Cl)c(Cl)c2C1=O', 4.66),
  ('CC(C)C(N)C(=O)OCCOCn1cnc2c(=O)[nH]c(N)nc21 (configuration not stated)', 8.93),
  ('CC(C)n1nc(C#Cc2ccccc2)c2c(N)ncnc21', 25),
  ('COc1cc(C(CO)C(OC2OC(CO)C(O)C(O)C2O)c2ccc(O)c(OC)c2)ccc1O (configuration not stated)', 20.5),
  ('CC(C)=CCC[C@](C)(O[C@@H]1O[C@H](CO[C@@H]2OC[C@@H](O)[C@H](O)[C@H]2O)[C@@H](O)[C@H](O)[C@H]1O)[C@H]1CC[C@]2(C)[C@@H]1[C@H](O)C[C@@H]1[C@@]3(C)CC[C@H](O[C@@H]4O[C@H](CO)[C@@H](O)[C@H](O)[C@H]4O[C@@H]4O[C@H](CO)[C@@H](O)[C@H](O)[C@H]4O)C(C)(C)[C@@H]3CC[C@]12C', -8.33);
